Assign Inhibition activity Rep 1 to each entry below.
target: UniProt:Q99ZW2; assay: eGFP-disruption assay in U2OS.eGFP.PEST cells; format: cell-based, S. pyogenes; parameters: host or cells: U2OS.eGFP.PEST; details: screen of structural analogs of BRD7087; 15 μM compound, 24 h, U2OS.eGFP.PEST cells
Sequence (Q99ZW2 whole entry): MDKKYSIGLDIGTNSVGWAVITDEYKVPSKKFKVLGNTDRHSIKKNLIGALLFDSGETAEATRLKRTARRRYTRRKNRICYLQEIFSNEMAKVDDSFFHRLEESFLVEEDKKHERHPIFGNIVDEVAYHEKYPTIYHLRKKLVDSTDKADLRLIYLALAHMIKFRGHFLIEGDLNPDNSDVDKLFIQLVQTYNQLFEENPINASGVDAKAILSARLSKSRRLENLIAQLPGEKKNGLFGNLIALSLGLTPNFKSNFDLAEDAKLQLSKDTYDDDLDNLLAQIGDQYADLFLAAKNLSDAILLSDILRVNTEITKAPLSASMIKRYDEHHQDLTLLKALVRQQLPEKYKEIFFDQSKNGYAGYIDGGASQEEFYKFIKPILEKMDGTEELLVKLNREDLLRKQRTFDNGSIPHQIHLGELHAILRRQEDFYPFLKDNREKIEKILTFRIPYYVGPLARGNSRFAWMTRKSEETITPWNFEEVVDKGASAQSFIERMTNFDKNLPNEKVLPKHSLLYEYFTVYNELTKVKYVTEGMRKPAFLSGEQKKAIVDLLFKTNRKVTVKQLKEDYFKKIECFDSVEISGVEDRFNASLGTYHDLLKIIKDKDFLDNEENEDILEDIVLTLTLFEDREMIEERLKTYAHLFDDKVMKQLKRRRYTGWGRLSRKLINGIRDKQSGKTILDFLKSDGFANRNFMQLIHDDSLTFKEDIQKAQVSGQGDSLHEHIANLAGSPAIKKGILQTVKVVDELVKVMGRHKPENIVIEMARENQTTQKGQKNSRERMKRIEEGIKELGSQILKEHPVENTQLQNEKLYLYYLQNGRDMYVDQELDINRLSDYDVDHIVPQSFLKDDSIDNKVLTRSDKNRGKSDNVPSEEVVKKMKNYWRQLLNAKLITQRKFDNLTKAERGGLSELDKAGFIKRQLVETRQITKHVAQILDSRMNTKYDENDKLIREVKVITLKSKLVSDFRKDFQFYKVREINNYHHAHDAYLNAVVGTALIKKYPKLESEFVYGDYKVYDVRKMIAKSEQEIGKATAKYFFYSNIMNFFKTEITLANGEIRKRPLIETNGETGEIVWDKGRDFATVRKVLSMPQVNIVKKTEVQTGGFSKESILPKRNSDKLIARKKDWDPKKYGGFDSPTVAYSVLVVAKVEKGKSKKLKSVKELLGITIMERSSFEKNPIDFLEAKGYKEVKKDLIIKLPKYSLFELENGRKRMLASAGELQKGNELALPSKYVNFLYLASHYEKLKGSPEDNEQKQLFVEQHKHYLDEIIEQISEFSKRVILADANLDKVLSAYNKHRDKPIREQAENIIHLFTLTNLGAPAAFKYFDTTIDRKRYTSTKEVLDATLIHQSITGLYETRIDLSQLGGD
Keep it simple and answer with nothing but the number.

Input line: Value lookup for Inhibition activity Rep 1; key = `COc1cccc(S(=O)(=O)N2CC[C@@H]3[C@H]2c2cc(C#Cc4cccnc4)ccc2N(C)[C@H]3CO)c1`
Output line: 49.1

Input line: What value of measured Inhibition activity Rep 1 is listed for `CN1c2ccc(C#Cc3ccc(F)cc3)cc2[C@@H]2[C@@H](CCN2C(=O)CN2CCOCC2)[C@H]1CO` ?
Output line: 51.7

Input line: Sample `CN1c2ccc(-c3ccccc3F)cc2[C@@H]2[C@@H](CCN2C(=O)NC2CCCCC2)[C@H]1CO` — what was its Inhibition activity Rep 1?
Output line: 50.5

Input line: Look up Inhibition activity Rep 1: `CN1c2ccc(-c3ccc(C#N)cc3)cc2[C@@H]2[C@@H](CCN2S(=O)(=O)c2cccc(F)c2)[C@H]1CO`
Output line: 52.1

Input line: Which measured Inhibition activity Rep 1 value corresponds to `CN1c2ccc(-c3ccc(F)cc3)cc2[C@H]2[C@H](CCN2S(=O)(=O)c2cccc(F)c2)[C@@H]1CO` ?
Output line: 53.6

Input line: Request the reported Inhibition activity Rep 1 associated with `COc1ccccc1-c1ccc2c(c1)[C@H]1[C@H](CCN1C(=O)CN1CCOCC1)[C@H](CO)N2C`
Output line: 57.2

// provenance: patent US12391685B2
